- Assay Target: T1, interleukin-23 receptor (IL-23R), Q5VWK5
- T1 chain: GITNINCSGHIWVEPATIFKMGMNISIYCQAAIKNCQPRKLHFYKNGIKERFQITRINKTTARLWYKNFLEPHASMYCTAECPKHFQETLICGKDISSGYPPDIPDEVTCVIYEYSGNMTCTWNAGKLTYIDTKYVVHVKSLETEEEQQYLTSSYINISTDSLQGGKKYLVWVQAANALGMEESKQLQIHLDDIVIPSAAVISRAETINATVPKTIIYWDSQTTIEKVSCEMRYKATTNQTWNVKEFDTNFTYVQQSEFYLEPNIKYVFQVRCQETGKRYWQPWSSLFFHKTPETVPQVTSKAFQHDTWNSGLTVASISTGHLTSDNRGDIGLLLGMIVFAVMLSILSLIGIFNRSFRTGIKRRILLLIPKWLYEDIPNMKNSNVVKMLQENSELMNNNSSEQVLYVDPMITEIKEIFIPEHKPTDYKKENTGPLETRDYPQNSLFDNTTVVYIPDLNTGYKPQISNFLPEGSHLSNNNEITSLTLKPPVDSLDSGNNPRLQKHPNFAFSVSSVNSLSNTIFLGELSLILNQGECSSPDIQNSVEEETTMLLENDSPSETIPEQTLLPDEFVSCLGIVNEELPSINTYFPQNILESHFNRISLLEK
- Experiment Summary: cell-based or functional assay
Starred links: 1 amine or outer side, 2 acyl side, 3 side chain; linkers in the order of their positions; H or OH if unused. Positions of bridges follow the written chain, without caps; N, C: chain ends. Non-standard residues stand in square brackets, D forms with d. No end group written: not given here. X3 = 4‑(2-(4-(2-amino-2-carboxyethyl)phenoxy)ethyl)‑4‑methylmorpholin‑4‑ium, C[N+]1(CCOc2ccc(CC(N[*:1])C(=O)[*:2])cc2)CCOCC1; X11 = 2‑amino‑3‑(2-hydroxyquinolin-6-yl)propanoic acid, O=C(C(Cc1ccc2nc(O[*:3])ccc2c1)N[*:1])[*:2]; Trp(7-(3-AcNH-Ph)) = CC(=O)Nc1cccc(-c2cccc3c(C[C@H](N)C(=O)O)c[nH]c23)c1; N‑methyl‑N‑acetyllysine = N-methyl-N-acetyllysine; Phe(4-OMe) = COc1ccc(C[C@H](N[*:1])C(=O)[*:2])cc1; 2Nal(6-OH) = N[C@@H](Cc1ccc2cc(O)ccc2c1)C(=O)O; Trp(7-Me) = Cc1cccc2c(C[C@H](N)C(=O)O)c[nH]c12; AEF = NCCOc1ccc(C[C@H](N)C(=O)O)cc1; 3Pal = N[C@@H](Cc1cccnc1)C(=O)O; Lipidated = not defined here; NMeK = CN[C@@H](CCCCN)C(=O)O; Pen = CC(C)(S)[C@H](N)C(=O)O; αMeK = C[C@](N)(CCCCN)C(=O)O; lipid = not defined here; Thp = NC1(C(=O)O)CCOCC1; PEG = not defined here; Ahp = NCCCCCCC(=O)O; Sar = CNCC(=O)O
Quantity Name: IL23R Reporter Assay IC50

Item: [(R)‑3‑carboxy‑2‑(4-(((R)-5-carboxy-5-hydrazineylpentyl)amino)-4-oxobutanamido)‑N,N,N‑trimethylpropan‑1‑aminium][Pen]NT[Trp(7-Me)]K(Ac)[Pen][2‑amino‑3‑(4-(2-aminoethoxy)phenyl)propanoic acid][2‑amino‑3‑(6-hydroxynaphthalen-2-yl)propanoic acid][Thp]EN[3Pal][NMeK](lipid) (disulfide 2-7 (inferred); ends not checked; also: X14: lipidated N-methyl-lysine, lipid and methyl place not given here) [SEQ ID NO: 167] | IL23R Reporter Assay IC50: > 100 nM

Field IL23R Reporter Assay IC50 (entry R[Pen]NTWK(Ac)[Pen][AEF][2Nal(6-OH)][Thp]EN[3Pal][Sar] (not fully specified (bridges); ends and bridges not checked) [SEQ ID NO: 74] ) reads < 10 nM

Item: [Ahp][Pen]NT[Trp(7-Me)]K(Ac)[Pen][2‑amino‑3‑(4-(2-aminoethoxy)phenyl)propanoic acid][2‑amino‑3‑(6-hydroxynaphthalen-2-yl)propanoic acid][Thp]EN[3Pal][Sar] (disulfide 2-7 (inferred); ends not checked) [SEQ ID NO: 447] | IL23R Reporter Assay IC50: > 100 nM

Short answer for [Pen]ET[Trp(7-Me)]K(Ac)[Pen][2‑amino‑3‑(4-(2-aminoethoxy)phenyl)propanoic acid][2‑amino‑3‑(6-hydroxynaphthalen-2-yl)propanoic acid][Thp]EN[3Pal][Sar] (not fully specified (bridges); ends and bridges not checked) [SEQ ID NO: 372] : IL23R Reporter Assay IC50 was < 10 nM

Per the record, [Pen]NT[Trp(7-Me)]K(Lipidated)[Pen][2‑amino‑3‑(4-(2-aminoethoxy)phenyl)propanoic acid][2‑amino‑3‑(6-hydroxynaphthalen-2-yl)propanoic acid][Thp]K(PEG)N[3Pal][Sar] (disulfide 1-6 (inferred); ends not checked; also: lipid structure not given here, PEG size not given here) [SEQ ID NO: 200] has IL23R Reporter Assay IC50 of > 100 nM

Notebook: R[Pen]NT[Trp(7-Me)]K(Ac)[Pen][2‑amino‑3‑(4-(2-aminoethoxy)phenyl)propanoic acid][2‑amino‑3‑(6-(2-hydroxyphenyl)naphthalen-2-yl)propanoic acid][Thp]EN[Thp] (not fully specified (bridges); ends and bridges not checked) [SEQ ID NO: 431] , IL23R Reporter Assay IC50 read as > 100 nM

Recorded result, [Pen]NT[Trp(7-Me)]K(lipid)[Pen][Phe(4-OMe)][2Nal(6-OH)][αMeK]LN[3Pal][Sar] (not fully specified (bridges); ends and bridges not checked; also: lipid group unspecified) [SEQ ID NO: 307] , IL23R Reporter Assay IC50: < 10 nM

The recorded IL23R Reporter Assay IC50 for entry [Pen]NT[Trp(7-(3-AcNH-Ph))]K(Ac)[Pen][5‑(4-(2-amino-2-carboxyethyl)phenoxy)‑N,N,N‑trimethylpentan‑1‑aminium][2Nal(6-OH)][Thp]EN[3Pal][Sar] (disulfide 1-6 (inferred); ends not checked) [SEQ ID NO: 63] equals < 10 nM

Reported IL23R Reporter Assay IC50 ( [Pen]NT[Trp(7-(3-AcNH-Ph))]K(Ac)[Pen][X3][2Nal(6-OH)][Thp][N‑methyl‑N‑acetyllysine]NH[Sar] (disulfide 1-6 (inferred); ends not checked) [SEQ ID NO: 62] ) = < 10 nM

Entry under test: [Pen]NT[Trp(7-Me)]K(Ac)[Pen][2‑amino‑3‑(4-(2-aminoethoxy)phenyl)propanoic acid][X11][Thp]EN[3Pal][Sar] (disulfide 1-6 (inferred); ends not checked) [SEQ ID NO: 149] . Its IL23R Reporter Assay IC50 was < 10 nM

Hello, the source for this data is patent US20240279281A1, in case you need it.
